- STUDY_TARGET: PDE 10A (Homo sapiens)
- Construct: is expressed recombinantly in full length in Sf9 insect cells; lysate supernatant used as the enzyme preparation
- Sequence (Q9Y233 1-779 isoform Q9Y233-1): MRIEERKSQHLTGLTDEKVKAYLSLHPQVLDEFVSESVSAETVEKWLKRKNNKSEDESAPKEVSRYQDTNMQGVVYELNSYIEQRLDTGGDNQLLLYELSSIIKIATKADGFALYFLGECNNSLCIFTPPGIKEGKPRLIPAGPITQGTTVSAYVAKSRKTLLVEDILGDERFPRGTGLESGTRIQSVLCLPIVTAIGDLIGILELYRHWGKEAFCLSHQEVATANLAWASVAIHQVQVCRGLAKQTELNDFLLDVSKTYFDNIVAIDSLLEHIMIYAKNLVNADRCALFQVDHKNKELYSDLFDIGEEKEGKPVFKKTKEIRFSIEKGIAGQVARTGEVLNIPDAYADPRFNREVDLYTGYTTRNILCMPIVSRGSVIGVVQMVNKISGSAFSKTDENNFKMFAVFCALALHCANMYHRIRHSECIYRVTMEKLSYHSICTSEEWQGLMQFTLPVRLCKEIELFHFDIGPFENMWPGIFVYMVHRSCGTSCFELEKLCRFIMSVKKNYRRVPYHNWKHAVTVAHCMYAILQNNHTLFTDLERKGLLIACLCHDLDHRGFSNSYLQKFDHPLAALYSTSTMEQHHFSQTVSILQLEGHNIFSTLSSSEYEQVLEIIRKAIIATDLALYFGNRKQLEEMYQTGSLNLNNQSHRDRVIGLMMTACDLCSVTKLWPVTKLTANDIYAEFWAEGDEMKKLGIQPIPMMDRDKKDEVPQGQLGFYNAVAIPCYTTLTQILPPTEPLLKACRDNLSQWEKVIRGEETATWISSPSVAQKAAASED
- ASSAY: Inhibition of PDE 10A (in vitro enzyme inhibition test)
- TEST_CONDITIONS: recombinant full-length PDE10A expressed in Sf9 insect cells; substrate [5',8-3H] adenosine 3',5'-cyclic phosphate; 60 min at room temperature; scintillation proximity beads
Lab note: anything with IC50 below 200 nM is marked True; values at 200 nM or higher are marked False.

[
  {
    "COMPOUND": "COc1ccc(-c2nc(Nc3cc(OC)c(OC)c(OC)c3)c3c(C)nc(C4CCCC4)n3n2)cc1S(=O)(=O)N1CCOCC1 [Example 24]",
    "STUDY_TARGET": "PDE 10A (Homo sapiens)",
    "CATEGORY": "True"
  },
  {
    "COMPOUND": "COc1ccc(Nc2nc(-c3ccc(OC)c(OC)c3)nn3c(C4CCCC4)nc(C)c23)cc1Cl [Example 16]",
    "STUDY_TARGET": "PDE 10A (Homo sapiens)",
    "CATEGORY": "False"
  },
  {
    "COMPOUND": "COc1ccc(-c2nc(SCc3cccnc3)c3c(C)nc(C4CCCC4)n3n2)cc1OC [Example 12]",
    "STUDY_TARGET": "PDE 10A (Homo sapiens)",
    "CATEGORY": "False"
  }
]

IC50 strictly < 200 nM for this compound? COc1cc(Nc2nc(-c3ccc(Br)cc3)nn3c(C)nc(C)c23)cc(OC)c1OC [Example 48] True

IC50 strictly < 200 nM for this compound? COc1cc(Nc2nc(-c3ccc(C)cc3)nn3c(C)nc(C)c23)cc(OC)c1OC [Example 53] True

IC50 strictly < 200 nM for this compound? COc1cc(CNc2nc(-c3ccc(OC)c(OC)c3)nn3c(C)nc(C)c23)cc(OC)c1 [Example 3] False

IC50 strictly < 200 nM for this compound? COc1ccc(Nc2nc(-c3ccc(OC)c(OC)c3)nn3c(C4CCCC4)nc(C)c23)c(OC)c1 [Example 18] True

IC50 strictly < 200 nM for this compound? CCCc1nc(C)c2c(Nc3cccc(O)c3)nc(-c3ccccc3OCC)nn12 [Example 43] False

###

ASSAY_METRIC: melting point (°C)
Answers are plain numbers, in °C.

Examples with answers:
[
  {
    "SAMPLE_SMILES": "COc1ccc(Nc2nc(-c3ccc(OC)c(OC)c3)nn3c(C4CCCC4)nc(C)c23)cc1",
    "VAL": 185
  },
  {
    "SAMPLE_SMILES": "COc1ccc(-c2nc(Nc3cc(C)c(OC)c(C)c3)c3c(C)nc(C)n3n2)cc1OC",
    "VAL": 173
  }
]

// batch mode: one melting point value per listed entry
1. COc1ccc(-c2nc(Nc3cc(C)c(OC)c(C)c3)c3c(C)nc(C4CCCC4)n3n2)cc1OC
2. COc1ccc(-c2nc(SCc3cccnc3)c3c(C)nc(C)n3n2)cc1OC
3. COc1ccc(-c2nc(Oc3cc(OC)c(OC)c(OC)c3)c3c(C)nc(C)n3n2)cc1Cl
4. CCc1nc(C2CCCC2)n2nc(-c3ccc(OC)c(S(=O)(=O)N4CCOCC4)c3)nc(Oc3cc(OC)c(OC)c(OC)c3)c12
5. CCCc1nc(C)c2c(Nc3cccc(Br)c3)nc(-c3ccccc3OCC)nn12
6. COc1cc(Oc2nc(-c3ccc(Br)cc3)nn3c(C)nc(C)c23)cc(OC)c1OC

1. 180
2. 161
3. 213
4. 119
5. 96
6. 199

// batch mode: one melting point value per listed entry
1. COc1cccc(Nc2nc(-c3ccc(OC)c(OC)c3)nn3c(C4CCCC4)nc(C)c23)c1
2. CCc1nc(C2CCCC2)n2nc(-c3ccc(OC)cc3)nc(Nc3cc(OC)c(OC)c(OC)c3)c12
3. COc1ccc(-c2nc(Oc3cc(OC)c(OC)c(OC)c3)c3c(C)nc(C)n3n2)cc1OC
4. COc1ccc(-c2nc(NCc3cc(OC)c(OC)c(OC)c3)c3c(C)nc(C4CCCC4)n3n2)cc1OC
5. CCC(CC)c1nc(C)c2c(Oc3cc(OC)c(OC)c(OC)c3)nc(-c3ccc(OC)c(Cl)c3)nn12
6. CCCc1nc(C)c2c(Oc3cc(OC)c(OC)c(OC)c3)nc(-c3ccccc3OCC)nn12
7. COc1ccc(-c2nc(Oc3cc(OC)c(OC)c(OC)c3)c3c(C)nc(CC(C)C)n3n2)cc1Cl

1: 126; 2: 160; 3: 184; 4: 188; 5: 166; 6: 153; 7: 160

Origin of the recorded values: patent US6936609B2
